EXPERIMENTAL SYSTEM: Y160W PNP mutant (Escherichia coli, UniProt P0ABP8, Y161W)
ASSAY TEXT: Near-UV CD titrations
Format: binding, E. coli
Design: made in house; host or cells: E. coli DH5α-T1
PROTOCOL CONDITIONS: CD titrations with phosphate, three-binding-site model, 25 °C, 50 mM Tris/HCl pH 7.6, read-out: Kd2 ± SD
QUANTITY: Kd (µM)
Reply numerically in µM, unit not repeated.

Challenge: Entry under review: O=P(O)(O)O [Pi, Orthophosphate] . Reported Kd?
Response given: 128

* * *

EXPERIMENTAL SYSTEM: Y160W PNP mutant (Escherichia coli, UniProt P0ABP8, Y161W)
ASSAY TEXT: Fluorescence titrations with phosphate
Set-up: made in house; host or cells: E. coli DH5α-T1; species or system E. coli
PROTOCOL CONDITIONS: three-binding-site model, 25 °C, 50 mM Tris/HCl pH 7.6, read-out: Kd3 ± SD
QUANTITY: Kd (mM)
Give just the numeric value; mM need not be written.

Challenge: Report Kd for O=P(O)(O)O [Pi, Orthophosphate] tested on Y160W PNP mutant (Escherichia coli, UniProt P0ABP8, Y161W).
Response given: 3.2

* * *

EXPERIMENTAL SYSTEM: Y160W PNP mutant (Escherichia coli, UniProt P0ABP8, Y161W)
ASSAY TEXT: Thermophoretic (MST) titrations with phosphate
Parameters: made in house; host or cells: E. coli DH5α-T1; species or system E. coli
PROTOCOL CONDITIONS: two-binding-site model, 25 °C, 50 mM Tris/HCl pH 7.6, read-out: Kd3 ± SD
QUANTITY: Kd (µM)
Field format: number, assumed µM, no unit text.

Challenge: Requested read-out: Kd. Entry: O=P(O)(O)O [Pi, Orthophosphate]
Response given: 1280

* * *

Enzymatic specific activity relative to WT reference
EXPERIMENTAL SYSTEM: WT E. coli PNP (Escherichia coli, UniProt P0ABP8)
Construct: made in house
Sequence (P0ABP8 2-239 limits assumed): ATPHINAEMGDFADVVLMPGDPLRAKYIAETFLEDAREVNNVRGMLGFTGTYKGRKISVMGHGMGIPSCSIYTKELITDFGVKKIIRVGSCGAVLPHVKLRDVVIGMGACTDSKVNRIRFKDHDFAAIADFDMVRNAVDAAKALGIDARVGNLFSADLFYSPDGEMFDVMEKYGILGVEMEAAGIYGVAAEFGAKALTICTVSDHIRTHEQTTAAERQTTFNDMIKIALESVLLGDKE
ASSAY TEXT: Enzymatic specific activity, spectrophotometric assay
Type: biochemical
PROTOCOL CONDITIONS: WT PNP (reference = 100); pH 7.0, 50 mM Hepes, 25 °C, 50 mM phosphate
Express it in %; write the number only.

For orientation, consider the following solved cases.
C[n+]1cn([C@@H]2O[C@H](CO)[C@@H](O)[C@H]2O)c2nc(N)[nH]c(=O)c21 [m^7Guo, 7-Methylguanosine] : 100
Nc1ncnc2c1ncn2[C@@H]1O[C@H](CO)[C@@H](O)[C@H]1O [Ado, Adenosine] : 100
O=c1[nH]cnc2c1ncn2[C@@H]1O[C@H](CO)[C@@H](O)[C@H]1O [Ino, Inosine] : 100

# evaluate next
Challenge: Entry Nc1nc2c(ncn2[C@@H]2O[C@H](CO)[C@@H](O)[C@H]2O)c(=O)[nH]1 [Guo, Guanosine] has what Enzymatic specific activity relative to WT?
Response given: 100
